assay: Pharmacokinetic studies, single administration; type: in vivo, male Swiss albino mice; settings: mouse, plasma, iv; I.V., 1 mg/kg
outcome-measure: C0 (ng/mL)
# number only, unit ng/mL dropped from output

Note C0 for the compound shown: `CCCCc1cn(-c2ccc(-c3nnc(-c4ccccc4C(F)(F)F)o3)cc2)nn1`
879

---

test: Plasma protein binding (rapid equilibrium dialysis); type: in vitro ADME; settings: Rat plasma; read-out: % Recovery ± SD
outcome-measure: recovery at 5 h, 10 µM (%)
# number only, unit % dropped from output

Note recovery at 5 h, 10 µM for the compound shown: `CCCCc1cn(-c2ccc(-c3nnc(-c4ccccc4C(F)(F)F)o3)cc2)nn1`
63.4
